Where a name gives a salt, the structure may show the parent alone.
Examples of compounds with documented melting point follow.

Field: example entries. Status: answers known.
[
  {
    "compound": "COc1ccc2ccc(OCCC3CCN(C(=O)OCc4cscn4)CC3)cc2c1",
    "obs.value": "95 to 97 °C"
  },
  {
    "compound": "O=C(OCc1cscn1)N1CCC(COc2ccc(Cl)c(C(F)(F)F)c2)C1 (racemic)",
    "obs.value": "60 to 62 °C"
  },
  {
    "compound": "O=C(OCc1cscn1)N1CCC(CCOc2ccc(Cl)cc2)CC1",
    "obs.value": "53 to 55 °C"
  },
  {
    "compound": "O=C(OCc1cscn1)N1CCC(CCOc2ccc3ncccc3c2)CC1 (as salt: HCl)",
    "obs.value": "140 to 150 °C"
  }
]

query: # input compound: O=C(OCc1cscn1)N1CCC(COc2ccc3cccnc3c2)C1 (racemic) ; wanted: its melting point
result: 94 to 96 °C

query: Then this compound: O=C(OCc1cncs1)N1CCC(CCOc2ccc(C(F)(F)F)cc2)CC1
result: 47 to 49 °C

query: Next: O=C(OCc1cscn1)N1CCC(COc2cccc(OC(F)(F)F)c2)C1 (racemic)
result: 54 to 56 °C

query: Input O=C(OCc1cscn1)N1CCC(CCOc2ccc(-c3ccc(F)cc3)cc2)CC1
result: 62 to 64 °C

query: Next record, please: COc1ccc2cc(OCC3CCN(C(=O)OCc4cscn4)C3)ccc2c1 (racemic)
result: 128 to 130 °C
